Target: T1, Human latent myostatin (human, UniProt O14793 25-266; O14793 267-375)
T1 construct: Biotinylated in the ELISAs; also called human myostatin latent form
T1 sequence 1: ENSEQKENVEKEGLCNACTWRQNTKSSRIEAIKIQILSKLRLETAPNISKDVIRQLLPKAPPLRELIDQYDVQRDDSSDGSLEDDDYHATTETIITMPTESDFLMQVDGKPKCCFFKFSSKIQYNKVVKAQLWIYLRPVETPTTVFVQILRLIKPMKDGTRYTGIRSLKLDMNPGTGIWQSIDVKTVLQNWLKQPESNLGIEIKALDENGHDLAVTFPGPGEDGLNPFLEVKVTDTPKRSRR
T1 sequence 2: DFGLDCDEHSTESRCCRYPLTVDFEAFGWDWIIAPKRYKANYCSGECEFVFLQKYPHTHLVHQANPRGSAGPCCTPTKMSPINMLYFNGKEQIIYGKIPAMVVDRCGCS
Experiment: SPR (BIACORE), additional dissociation phase at pH5.8 after dissociation at pH7.4, Scrubber 2.0 fit
# koff listing for each entry below
Report the value in s⁻¹ with no unit label.

Recorded results for 2 binders are shown here.
{"binder": "MS_M103205H000-SG1/M103202LO00-SK1 (antibody, human IgG1, kappa, V domains shown, Humanized MST1032, not pH-dependent; also called MS1032LO00-SG1; Ab001) VH: QVTLKESGPVLVKPTETLTLTCTVSGIDLSSYDISWVRQAPGKGLEWVGIISYAGSTYYASWAKGRLTISKDTSKNQVVLTMTNMDPVDTATYYCARGVPAYSTGGDLWGQGTLVTVSS VL: DIVMTQSPATLSLSPGERATLSCQSSQSVYDNNWLSWFQQKPGQPPKLLIYWASTLASGVPSRFSGSGSGTDFTLTISSLQPEDAATYYCAGGYGGGLYAFGQGTKVEIKR", "unit_text": "s⁻¹", "koff": "2.92e-05"}
{"binder": "Ab003 (M103205H009 / M103202L000) (antibody, human IgG1, kappa, V domains shown, Histidine-substituted variant of MS1032LO00-SG1) VH: QVTLKESGPVLVKPTETLTLTCTVSGIDLSSYDISWVRQAPGKGLEWVGIISHAGSTYYASWAKGRLTISKDTSKNQVVLTMTNMDPVDTATYYCARGVPAYSTGGDLWGQGTLVTVSS VL: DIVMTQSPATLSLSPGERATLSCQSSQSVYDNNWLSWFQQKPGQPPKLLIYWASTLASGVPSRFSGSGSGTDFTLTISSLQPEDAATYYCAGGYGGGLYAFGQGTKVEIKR", "unit_text": "s⁻¹", "koff": 0.00088}

Query: koff; subject: Ab002 (M103205H001 / M103202L000) (antibody, human IgG1, kappa, V domains shown, Histidine-substituted variant of MS1032LO00-SG1) VH: QVTLKESGPVLVKPTETLTLTCTVSGIDLSHYDISWVRQAPGKGLEWVGIISYAGSTYYASWAKGRLTISKDTSKNQVVLTMTNMDPVDTATYYCARGVPAYSTGGDLWGQGTLVTVSS VL: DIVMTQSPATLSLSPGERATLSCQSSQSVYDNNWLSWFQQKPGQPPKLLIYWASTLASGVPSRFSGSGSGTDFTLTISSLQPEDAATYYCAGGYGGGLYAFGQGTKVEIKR
0.00609
